Where do these numbers come from? They come from PubChem BioAssay AID1159580.

experimental_details: chemical genetic growth profiling, strain panel (AID 1159580);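 further: tested at 20 µM; growth read once vehicle control cultures reached saturation at 30 °C; lower values mean less growth of the strain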
measurement_parameters: S. cerevisiae deletion strains, growth OD, locus YLR262C, strain YPT6 (second series), hits give low values
Out of some 5,500 compounds screened, about 2,000 (36%) were called active. Roughly 18% stayed inconclusive and do not appear here. Some of the results follow.
Decision: normalized growth beneath 1 gives t; normalized growth meeting or exceeding 1 gives f.

Strictly below 1 in normalized growth? `CN(C)c1ccc(C(=C2C=CC(=[N+](C)C)C=C2)c2ccc(N(C)C)cc2)cc1`
t

Strictly below 1 in normalized growth? `COc1cc2c(cc1OC)[C@@H]1C(=O)c3ccc4c(c3O[C@@H]1CO2)C=CC(C)(C)O4`
t

Strictly below 1 in normalized growth? `COc1cc2c(cc1OC)[C@@H]1C(=O)c3ccc(O)c(CC=C(C)C)c3O[C@@H]1CO2`
t

Strictly below 1 in normalized growth? NC(=O)C(c1ccccc1)(c1ccccc1)C1CCN(CCc2ccc3c(c2)CCO3)C1 (stereo unspecified)
f

Strictly below 1 in normalized growth? `COc1ccc2cc([C@H](C)C(=O)O)ccc2c1`
t

Strictly below 1 in normalized growth? CCOC(=O)C(=O)C1(C(=O)OCC)Oc2cc(OC)cc(OC)c2C(=O)C1c1ccccc1 (stereo unspecified)
t
